measurement.protocol: Oral bioavailability in cynomolgus monkey at 10 mg/kg by LC-MS/MS analysis
Assay type: ADME, organism-based, Macaca fascicularis
condition.context: in vivo
Recorded bioavailability values for a group of molecules are listed next.
A number alone suffices; assume %.

# example entries with known answers
> print(dat)
                         compound.structure  value.measured
1  CN1CCN(Cc2ccc(N3CCc4c(-c5cnc(N)nc5)nc(N5CCOCC5)nc43)cc2)CC1              21
2  Nc1ncc(-c2nc(N3CCOCC3)nc3c2CCN3c2ccc(C(=O)N3CCOCC3)cc2F)cn1              47

For the next question, use this molecule.
State, in one line, measured bioavailability of "Nc1ncc(-c2nc(N3CCOCC3)nc3c2CCN3c2cccnc2)cn1" 5.6

###

measurement.protocol: Intrinsic clearance in mouse liver microsomes at 1 uM after 30 mins by LC-MS/MS analysis
Assay type: ADME
condition.context: read-out: CLH
Recorded microsomal CLint at 1 µM values for a group of compounds are listed next.
A number alone suffices; assume µL/min/mg.

# example entries with known answers
> print(dat)
                         compound.structure             quantity.name  value.measured
1  CN1CCN(C(=O)c2ccc(N3CCc4c(-c5cnc(N)nc5)nc(N5CCOCC5)nc43)cc2)CC1  microsomal CLint at 1 µM            10.8
2  CN1CCN(C(=O)c2cncc(N3CCc4c(-c5cnc(N)nc5)nc(N5CCOCC5)nc43)c2)CC1  microsomal CLint at 1 µM            19.7
3  Nc1ncc(-c2nc(N3CCOCC3)nc3c2CCN3c2cccnc2)cn1  microsomal CLint at 1 µM            11.5
4  CN1CCN(C(=O)c2ccc(N3CCc4c(-c5cnc(N)nc5)nc(N5CCOCC5)nc43)cn2)CC1  microsomal CLint at 1 µM             3.5

For the next question, use this compound.
State, in one line, measured microsomal CLint at 1 µM of "Nc1ncc(-c2nc(N3CCOCC3)nc3c2CCN3c2ccc(C(=O)N3CCOCC3)cc2F)cn1" 0.14

###

Recorded Papp values for a group of compounds are listed next.
measurement.protocol: Permeability of the compound by PAMPA method
Type: ADME
condition.context: read-out: permeability
A number alone suffices; assume ×10⁻⁶ cm/s.

# example entries with known answers
> print(dat)
                         compound.structure  measure.unit  value.measured
1  Nc1ncc(-c2nc(N3CCOCC3)nc3c2CCN3c2cccnc2)cn1    ×10⁻⁶ cm/s             1.9
2  CN1CCN(C(=O)c2ccc(N3CCc4c(-c5cnc(N)nc5)nc(N5CCOCC5)nc43)cn2)CC1    ×10⁻⁶ cm/s            1.64
3  Nc1ncc(-c2nc(N3CCOCC3)nc3c2CCN3c2ccc(CN3CCOCC3)cc2)cn1    ×10⁻⁶ cm/s            4.52
4  CN1CCN(C(=O)c2cc(N3CCc4c(-c5cnc(N)nc5)nc(N5CCOCC5)nc43)ccn2)CC1    ×10⁻⁶ cm/s            1.13
5  Nc1ncc(-c2nc(N3CCOCC3)nc3c2CCN3c2ccc(C(=O)N3CCOCC3)cc2F)cn1    ×10⁻⁶ cm/s            3.16
6  Nc1ncc(-c2nc(N3CCOCC3)nc3c2CCN3c2ccc(CN3CCOCC3)cc2F)cn1    ×10⁻⁶ cm/s            4.18

State, in one line, measured Papp of "CN1CCN(Cc2ccc(N3CCc4c(-c5cnc(N)nc5)nc(N5CCOCC5)nc43)cc2)CC1" 0.92

State, in one line, measured Papp of "CN1CCN(C(=O)c2ccc(N3CCc4c(-c5cnc(N)nc5)nc(N5CCOCC5)nc43)cc2)CC1" 1.24

State, in one line, measured Papp of "CN1CCN(C(=O)c2cccc(N3CCc4c(-c5cnc(N)nc5)nc(N5CCOCC5)nc43)c2)CC1" 1.79

State, in one line, measured Papp of "CN1CCN(C(=O)c2cncc(N3CCc4c(-c5cnc(N)nc5)nc(N5CCOCC5)nc43)c2)CC1" 0.73

###

measurement.protocol: Cmax in BALB/c nu mouse at 50 mg/kg, po by LC-MS/MS analysis
Assay type: ADME, organism-based
Parameters: dose 50 mg/kg, route oral
condition.context: in vivo
Returns true (1) if the recorded Cmax is greater than or equal to 2000 ng/mL, and false (0) otherwise.

Illustrative cases are given below, each with its answer.
> print(dat)
                         compound.structure  class.label
1  CN1CCN(C(=O)c2cncc(N3CCc4c(-c5cnc(N)nc5)nc(N5CCOCC5)nc43)c2)CC1    false (0)
2  Nc1ncc(-c2nc(N3CCOCC3)nc3c2CCN3c2cccnc2)cn1     true (1)
3  CN1CCN(Cc2ccc(N3CCc4c(-c5cnc(N)nc5)nc(N5CCOCC5)nc43)cc2)CC1    false (0)
4  Nc1ncc(-c2nc(N3CCOCC3)nc3c2CCN3c2ccc(CN3CCOCC3)cc2F)cn1     true (1)
5  CN1CCN(C(=O)c2ccc(N3CCc4c(-c5cnc(N)nc5)nc(N5CCOCC5)nc43)cc2)CC1     true (1)

Test whether the compound "CN1CCN(C(=O)c2cc(N3CCc4c(-c5cnc(N)nc5)nc(N5CCOCC5)nc43)ccn2)CC1" records Cmax of 2000 ng/mL or higher. false (0)

Test whether the compound "CN1CCN(C(=O)c2cccc(N3CCc4c(-c5cnc(N)nc5)nc(N5CCOCC5)nc43)c2)CC1" records Cmax of 2000 ng/mL or higher. false (0)

Test whether the compound "Nc1ncc(-c2nc(N3CCOCC3)nc3c2CCN3c2ccc(C(=O)N3CCOCC3)cc2F)cn1" records Cmax of 2000 ng/mL or higher. true (1)

Test whether the compound "CN1CCN(C(=O)c2ccc(N3CCc4c(-c5cnc(N)nc5)nc(N5CCOCC5)nc43)cn2)CC1" records Cmax of 2000 ng/mL or higher. false (0)

###

measurement.protocol: Half life in cynomolgus monkey at 5 mg/kg, iv by LC-MS/MS analysis
Assay type: ADME, organism-based, Macaca fascicularis
condition.context: in vivo
quantity.name: half-life (h)
A number alone suffices; assume h.

State, in one line, measured half-life of "CN1CCN(Cc2ccc(N3CCc4c(-c5cnc(N)nc5)nc(N5CCOCC5)nc43)cc2)CC1" 10.5

State, in one line, measured half-life of "Nc1ncc(-c2nc(N3CCOCC3)nc3c2CCN3c2cccnc2)cn1" 1.36

###

measurement.protocol: Oral bioavailability in BALB/c nu mouse at 50 mg/kg by LC-MS/MS analysis
Format: ADME, organism-based
condition.context: in vivo
quantity.name: bioavailability (%)
A number alone suffices; assume %.

> print(dat)
                         compound.structure  measure.unit  value.measured
1  Nc1ncc(-c2nc(N3CCOCC3)nc3c2CCN3c2ccc(C(=O)N3CCOCC3)cc2F)cn1             %              86

For the next question, use this compound.
State, in one line, measured bioavailability of "CN1CCN(Cc2ccc(N3CCc4c(-c5cnc(N)nc5)nc(N5CCOCC5)nc43)cc2)CC1" 61

###

measurement.protocol: Initial plasma concentration in BALB/c nu mouse at 10 mg/kg, iv by LC-MS/MS analysis
Format: ADME, organism-based
quantity.name: C0 (ng/mL)
A number alone suffices; assume ng/mL.

> print(dat)
                         compound.structure  measure.unit  value.measured
1  Nc1ncc(-c2nc(N3CCOCC3)nc3c2CCN3c2cccnc2)cn1         ng/mL           10400
2  CN1CCN(Cc2ccc(N3CCc4c(-c5cnc(N)nc5)nc(N5CCOCC5)nc43)cc2)CC1         ng/mL            3940

State, in one line, measured C0 of "Nc1ncc(-c2nc(N3CCOCC3)nc3c2CCN3c2ccc(C(=O)N3CCOCC3)cc2F)cn1" 9180

###

measurement.protocol: AUC (infinity) in BALB/c nu mouse at 10 mg/kg, iv by LC-MS/MS analysis
Format: ADME, organism-based
Parameters: dose 10 mg/kg, time infinity, route intravenous
condition.context: in vivo
Recorded AUC(0-inf) values for a group of compounds are listed next.
Show the value, then the unit it is measured in.

# example entries with known answers
> print(dat)
                         compound.structure  value.measured
1  Nc1ncc(-c2nc(N3CCOCC3)nc3c2CCN3c2ccc(C(=O)N3CCOCC3)cc2F)cn1   15000 ng·h/mL
2  Nc1ncc(-c2nc(N3CCOCC3)nc3c2CCN3c2cccnc2)cn1    4690 ng·h/mL

For the next question, use this compound.
State, in one line, measured AUC(0-inf) of "CN1CCN(Cc2ccc(N3CCc4c(-c5cnc(N)nc5)nc(N5CCOCC5)nc43)cc2)CC1" 4400 ng·h/mL
